Molecular target: kappa opioid receptor (Homo sapiens)
Sequence (P41145 whole entry): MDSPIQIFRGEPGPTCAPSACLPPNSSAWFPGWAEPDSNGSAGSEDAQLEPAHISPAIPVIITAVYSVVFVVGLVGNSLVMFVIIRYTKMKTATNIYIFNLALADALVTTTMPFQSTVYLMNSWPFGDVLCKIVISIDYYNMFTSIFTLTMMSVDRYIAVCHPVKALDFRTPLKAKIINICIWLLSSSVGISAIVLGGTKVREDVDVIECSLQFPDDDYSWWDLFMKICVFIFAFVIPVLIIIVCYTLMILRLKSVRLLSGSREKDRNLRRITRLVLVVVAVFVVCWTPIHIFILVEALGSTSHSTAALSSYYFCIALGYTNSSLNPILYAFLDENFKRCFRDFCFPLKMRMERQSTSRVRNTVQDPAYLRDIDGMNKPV
Assay: Filtration binding assay: kappa opioid receptor
Overview of reported pIC50 across a group of molecules:
Scale explanation: pIC50 corresponds to minus log10 of a concentration expressed in moles per litre.

Some molecules with recorded pIC50:
molecule | pIC50
CCCCN(CCCC)CCCNC[C@H](O)CN1CN(c2ccc(F)cc2)C2(CCN(C3Cc4cccc5cccc3c45)CC2)C1=O (mixture of isomers) | 6.85
COc1ccc(CCNC[C@H](O)CN2CN(c3ccc(F)cc3)C3(CCN(C4Cc5cccc6cccc4c56)CC3)C2=O)cc1OC (mixture of isomers) | 6.77
CN(C)CCN(Cc1ccccc1)C[C@H](O)CN1CN(c2ccc(F)cc2)C2(CCN(CC3CCCCCCC3)CC2)C1=O | 6.64

Problem: Query (molecule): COc1cc(CNC[C@H](O)CN2CN(c3ccc(F)cc3)C3(CCN(C4Cc5cccc6cccc4c56)CC3)C2=O)cc(OC)c1 (mixture of isomers) ; field requested: pIC50
Solution: 6.64

Problem: What measured pIC50 goes with COc1cc(OC)c(CNC[C@H](O)CN2CN(c3ccc(F)cc3)C3(CCN(C4Cc5cccc6cccc4c56)CC3)C2=O)c(OC)c1 (mixture of isomers) ?
Solution: 6.44

Problem: # input molecule: O=C1N(C[C@@H](O)CNCC23CC4CC(CC(C4)C2)C3)CN(c2ccc(F)cc2)C12CCN(CC1CCCCCCC1)CC2 ; wanted: its pIC50
Solution: 6.60

###

Target: kappa opioid receptor (Homo sapiens)
Assay: Filtration binding assay: kappa opioid receptor
parameter: IC50 (nM)
I only need the number, in nM, no unit after it.

compound | tgt | measured.value
COc1ccc(CCNC[C@H](O)CN2CN(c3ccc(F)cc3)C3(CCN(Cc4ccc5ccccc5c4)CC3)C2=O)cc1OC | kappa opioid receptor (Homo sapiens) | 270
COc1ccc(CNC[C@H](O)CN2CN(c3ccc(F)cc3)C3(CCN(CC4CCCCCCC4)CC3)C2=O)cc1OC | kappa opioid receptor (Homo sapiens) | 300
O=C1N(C[C@@H](O)CNCc2ccc([N+](=O)[O-])cc2)CN(c2ccc(F)cc2)C12CCN(CC1CCCCCCC1)CC2 | kappa opioid receptor (Homo sapiens) | 490

Problem: Hi! What's the reported IC50 for Cc1cccc2cccc(CN3CCC4(CC3)C(=O)N(C[C@H](O)CNc3ccncc3)CN4c3ccc(F)cc3)c12 on kappa opioid receptor (Homo sapiens)?
Solution: 1040

Problem: Hi! What's the reported IC50 for O=C1N(C[C@@H](O)CNCc2cccc(Br)c2)CN(c2ccc(F)cc2)C12CCN(CC1CCCCCCC1)CC2 on kappa opioid receptor (Homo sapiens)?
Solution: 440

Problem: Please state recorded IC50 (tested on kappa opioid receptor (Homo sapiens)) of COc1ccc(CNC[C@@H](O)CN2CN(c3ccc(F)cc3)C3(CCN(CC4CCCCCCC4)CC3)C2=O)cc1OC
Solution: 190

Problem: Can you look up IC50 on kappa opioid receptor (Homo sapiens) for O=C1N(C[C@@H](O)CNCc2cc(C(F)(F)F)cc(C(F)(F)F)c2)CN(c2ccc(F)cc2)C12CCN(C1Cc3cccc4cccc1c34)CC2 (mixture of isomers) ?
Solution: 580

Problem: Could you share what IC50 was measured for COc1cc(CNC[C@H](O)CN2CN(c3ccc(F)cc3)C3(CCN(C4Cc5cccc6cccc4c56)CC3)C2=O)cc(OC)c1OC (mixture of isomers) , tested on kappa opioid receptor (Homo sapiens)?
Solution: 120

Problem: For kappa opioid receptor (Homo sapiens), provide IC50 of O=C1N(C[C@H]2CO2)CN(c2ccc(F)cc2)C12CCN(Cc1ccc3ccccc3c1)CC2 please.
Solution: 530

###

Target: UniProt:P35372
Test: Filtration binding assay: mu opioid receptor
parameter: IC50

compound | IC50
O=C1N(C[C@@H](O)CNCc2cccnc2)CN(c2ccc(F)cc2)C12CCN(Cc1cc(C(F)(F)F)cc(C(F)(F)F)c1)CC2 [compound 609] | ≥ 10 µM
O=C1N(C[C@@H](O)CN(Cc2ccccc2)C[C@@H]2CCCCC[C@@H]2O)CN(c2ccc(F)cc2)C12CCN(CC1CCCCCCC1)CC2 [compound 291] | 4.56 µM
Cc1cccc2cccc(CN3CCC4(CC3)C(=O)N(C[C@H](O)CN)CN4c3ccc(F)cc3)c12 [Compound #438] | > 10 µM
COc1cc(CNC[C@H](O)CN2CN(c3ccc(F)cc3)C3(CCN(C4Cc5cccc6cccc4c56)CC3)C2=O)cc(OC)c1OC (mixture of isomers) [compound 320] | 0.34 µM
CCCCN(CCCC)CCCNC[C@H](O)CN1CN(c2ccc(F)cc2)C2(CCN(C3Cc4cccc5cccc3c45)CC2)C1=O (mixture of isomers) [compound 338] | 0.74 µM
O=C(O)c1ccc(CNC[C@H](O)CN2CN(c3ccc(F)cc3)C3(CCN(CC4CCCCCCC4)CC3)C2=O)cc1 [compound 452] | 0.57 µM
O=C1N(C[C@@H](O)CNCCN2CCOCC2)CN(c2ccc(F)cc2)C12CCN(CC1CCCCCCC1)CC2 [Compound #1] | 0.62 µM
COc1ccc(CCNC[C@H](O)CN2CN(c3ccc(F)cc3)C3(CCN(Cc4cccc5cccc(C)c45)CC3)C2=O)cc1OC [compound 386] | > 10 µM

Problem: I am curious: what IC50 value has been reported for O=C1N(C[C@@H](O)CNCc2ccc([N+](=O)[O-])cc2)CN(c2ccc(F)cc2)C12CCN(CC1CCCCCCC1)CC2 [compound 23] ?
Solution: 9.2 µM

Problem: Any idea what IC50 was measured for O=C1N(C[C@@H](O)CNCc2ccccc2Br)CN(c2ccc(F)cc2)C12CCN(CC1CCCCCCC1)CC2 [Compound #44] ?
Solution: 1.13 µM

Problem: Which IC50 reading was recorded for the compound COc1ccc(CCN(C)C[C@H](O)CN2CN(c3ccc(F)cc3)C3(CCN(Cc4ccc(Cl)cc4)CC3)C2=O)cc1OC [compound 270] ?
Solution: 0.41 µM

Problem: Dear colleague, I am looking for the recorded IC50 of the following compound: COc1ccc(CNC[C@@H](O)CN2CN(c3ccc(F)cc3)C3(CCN(CC4CCCCCCC4)CC3)C2=O)cc1OC [Compound #2]
Solution: 1.2 µM

Problem: For the compound shown here, O=C1N(C[C@@H](O)CNCCc2cccs2)CN(c2ccc(F)cc2)C12CCN(CC1CCCCCCC1)CC2 [compound 26] , give the reported IC50.
Solution: 0.79 µM

Problem: What value of IC50 has been reported for the following compound? COc1ccc(CNC[C@H](O)CN2CN(c3ccc(F)cc3)C3(CCN(Cc4cccc5cccc(C)c45)CC3)C2=O)cc1 [compound 398]
Solution: > 10 µM

Problem: Reported IC50 for O=C1N(C[C@@H](O)CN(CCc2ccccc2)Cc2ccccc2)CN(c2ccc(F)cc2)C12CCN(C1Cc3cccc4cccc1c34)CC2 (mixture of isomers) [compound 313] : what is it?
Solution: 0.33 µM

Problem: Please give the measured IC50 for this compound: CSc1cccc(C(=O)N(Cc2ccc(C)cc2)C[C@H](O)CN2CN(c3ccc(F)cc3)C3(CCN(CC4CCCCCCC4)CC3)C2=O)n1 [compound 455]
Solution: 5.16 µM

Problem: IC50 lookup needed for O=C1N(C[C@@H](O)CNc2ccc(C3CCCCC3)cc2)CN(c2ccc(F)cc2)C12CCN(CC1CCCCCCC1)CC2 [compound 285] , thanks.
Solution: 4.78 µM

Problem: I have this compound here, CCOc1ccccc1NC[C@H](O)CN1CN(c2ccc(F)cc2)C2(CCN(CC3CCCCCCC3)CC2)C1=O [compound 281] , and I need its recorded IC50.
Solution: 0.58 µM

Problem: What value of IC50 has been recorded for this entry: COc1ccc(CCNC[C@@H](O)CN2CN(c3ccc(F)cc3)C3(CCN(C4Cc5cccc6cccc4c56)CC3)C2=O)cc1OC (mixture of isomers) [compound 300]
Solution: 0.51 µM

###

Molecular target: mu opioid receptor (Homo sapiens)
Sequence (P35372 whole entry): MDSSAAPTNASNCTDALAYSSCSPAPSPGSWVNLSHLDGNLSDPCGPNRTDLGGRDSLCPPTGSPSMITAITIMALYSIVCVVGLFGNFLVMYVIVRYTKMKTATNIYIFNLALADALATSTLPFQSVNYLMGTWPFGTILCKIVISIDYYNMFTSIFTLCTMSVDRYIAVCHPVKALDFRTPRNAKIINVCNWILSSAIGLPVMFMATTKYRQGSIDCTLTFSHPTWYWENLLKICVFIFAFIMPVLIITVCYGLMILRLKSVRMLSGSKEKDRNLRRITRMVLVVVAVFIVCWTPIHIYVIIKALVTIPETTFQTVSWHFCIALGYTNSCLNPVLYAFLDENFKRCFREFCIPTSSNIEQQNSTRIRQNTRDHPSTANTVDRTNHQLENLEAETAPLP
parameter: pKi
Note on units: pKi is unitless, being -log10 of a concentration expressed in mol/L.

Below are worked cases with known answers.
compound | parameter | measured.value
CNCCNC[C@@H](O)CN1CN(c2ccc(F)cc2)C2(CCN(Cc3cccc4cccc(C)c34)CC2)C1=O [compound 661] | pKi | 6.10
CC1(C)[C@H]2CC=C(CN3CCC4(CC3)C(=O)N(C[C@@H](O)CN)CN4c3ccc(F)cc3)[C@@H]1C2 [compound 619] | pKi | 6.85
CC1(C)[C@H]2CC=C(CN3CCC4(CC3)C(=O)N(C[C@@H]3CO3)CN4c3ccc(F)cc3)[C@@H]1C2 [compound 727] | pKi | 6.92
NC[C@@H](O)CN1CN(c2ccc(F)cc2)C2(CCN(CC3CCCCCCC3)CC2)C1=O [Compound #620] | pKi | 6.55
Cc1cccc2cccc(CN3CCC4(CC3)C(=O)N(C[C@H](O)CNCCCO)CN4c3ccc(F)cc3)c12 [Compound #651] | pKi | 6.17
Cc1cccc2cccc(CN3CCC4(CC3)C(=O)N(C[C@H](O)CNCCN(C)C(=O)OC(C)(C)C)CN4c3ccc(F)cc3)c12 [compound 667] | pKi | 6.11

Could you now look at the following compound, please?
Problem: I have this compound here, CNCCCNC[C@H](O)CN1CN(c2ccccc2)C2(CCN([C@H]3CC[C@@H]4CCCc5cccc3c54)CC2)C1=O [compound 658] , and I need its recorded pKi.
Solution: 6.77
